// provenance: PubChem BioAssay AID463173

Test system: DeltatarO mutant
Test: S. aureus survival, RN4220 and DeltatarO strains – OD600, teichoic acid synthesis inhibitors, primary screen (AID 463173)
Conditions: S. aureus RN4220 wild type/DeltatarO growth, OD600, 18 h, stronger effect = lower value, screened at 18.75 µg/mL (by protocol)
About 4,300 (8.3%) of roughly 52,000 compounds were called active. Many of the other results were omitted from the sample, so actives are more common in it than they were.
survival strictly less than 60% = 1. Otherwise -1.

INSERT INTO assay_data (smiles_data, classification) VALUES
  ('O=C(c1ccc2c(Cl)c3c(nc2c1)CCCC3)N1CCN(c2cccc(C(F)(F)F)c2)CC1', -1),
  ('O=C(c1ccc2c(Cl)c3c(nc2c1)CCCC3)N1CCN(c2ccccc2)CC1', 1),
  ('Cc1ccc(C)c(N2CCN(C(=O)c3ccc4c(Cl)c5c(nc4c3)CCCC5)CC2)c1', -1),
  ('Cc1c(C(=O)N(C)C)sc2c1c(=O)n(-c1ccc(Cl)c(Cl)c1)c(=O)n2CC(=O)Nc1cccc(C(F)(F)F)c1', 1),
  ('O=C(c1ccc2c(Cl)c3c(nc2c1)CCCC3)N1CCN(c2ccc(Cl)cc2)CC1', -1),
  ('CCN(CC)C(=O)c1sc2c(c1C)c(=O)n(-c1ccc(Cl)c(Cl)c1)c(=O)n2CC(=O)Nc1cccc(OC)c1', -1),
  ('CCOC(=O)c1ccccc1NC(=O)Cn1c(=O)n(-c2ccc(CC)cc2)c(=O)c2c(C)c(C(=O)N(C)C)sc21', 1),
  ('Cc1ccc(Cl)cc1N1CCN(C(=O)c2ccc3c(Cl)c4c(nc3c2)CCCC4)CC1', 1),
  ('Cc1cccc(N2CCN(C(=O)c3ccc4c(Cl)c5c(nc4c3)CCCC5)CC2)c1C', -1);

* * *

System: DeltatarO mutant
Experiment: S. aureus survival, RN4220 and DeltatarO strains – OD600, teichoic acid synthesis inhibitors, primary screen (AID 463173)
Conditions: S. aureus RN4220 wild type/DeltatarO growth, OD600, 18 h, screened at 18.75 µg/mL (by protocol)
About 4,300 (8.3%) of roughly 52,000 compounds were called active. No stated cut-off is given here; in the data, active means survival mostly below about 52% (no sharp cut-off); inactive means mostly above about 56%. The list comes from a sample in which actives are over-represented; it also holds close analogues and randomly drawn compounds.
Labels: active, inactive

INSERT INTO assay_data (smiles_data, classification) VALUES
  ('COc1cccc(CNC(=O)c2ccc3c(Cl)c4c(nc3c2)CCCC4)c1', 'active'),
  ('CCc1ccc2oc(-c3ccc(C)c(NC(=O)/C=C/c4ccco4)c3)nc2c1', 'inactive'),
  ('Cc1ccc2oc(-c3ccc(C)c(NC(=O)/C=C/c4ccco4)c3)nc2c1', 'inactive'),
  ('COc1ccc(CNC(=O)c2ccc3c(Cl)c4c(nc3c2)CCCC4)c(OC)c1', 'inactive'),
  ('Cn1c(=O)n(C)c2cc(NS(=O)(=O)c3ccc(F)cc3)c(NCc3ccccc3)cc21', 'inactive');

* * *

Parameter survival: see the listing below.
System: DeltatarO mutant
Assay: S. aureus survival, RN4220 and DeltatarO strains – OD600, teichoic acid synthesis inhibitors, primary screen (AID 463173)
Conditions: S. aureus RN4220 wild type/DeltatarO growth, OD600, 18 h, stronger effect = lower value, screened at 18.75 µg/mL (by protocol)
About 4,300 (8.3%) of roughly 52,000 compounds were called active. The sample holds actives, similar compounds and a random draw of the others, so the mix is not that of the screen.
READOUT_KIND: survival (%)

INSERT INTO assay_data (smiles_data, data_value) VALUES
  ('CCN(CC)CCN(C(=O)c1ccco1)c1nc2ccc(Cl)cc2s1', 66),
  ('CCn1c2ccccc2c2cc(CN3CCN(Cc4ccccc4Cl)CC3)ccc21', -1),
  ('CC(C)(C)OC(=O)N1CCC(c2c(C(=O)N3CCN(c4ccccn4)CC3)cnn2-c2ccc(F)cc2F)CC1', 79),
  ('CC(C)(C)OC(=O)N1CCC(c2c(C(=O)N3CCN(c4ncccn4)CC3)cnn2-c2ccc(F)cc2)CC1', 17),
  ('CCc1ccc2nc(N(CCN(CC)CC)C(=O)c3ccco3)sc2c1', 54),
  ('CCCn1c(N2CCN(Cc3ccc(Cl)cc3)CC2)nc2ccccc21', 91),
  ('Cc1cccc(Cc2c(C)nc3nc(SCc4ccccc4Cl)nn3c2C)c1', -9),
  ('CCn1c2ccccc2c2cc(CN3CCN(Cc4ccc(Cl)cc4)CC3)ccc21', -1),
  ('Cc1ccc(-n2ncc(C(=O)N3CCN(c4ncccn4)CC3)c2C2CCN(C(=O)OC(C)(C)C)CC2)cc1', 80),
  ('CCn1c2ccccc2c2cc(CN3CCN(Cc4ccco4)CC3)ccc21', 81),
  ('Cc1nc2nc(SCC(=O)NCc3ccccc3Cl)nn2c(C)c1Cc1ccccc1', 64),
  ('CCS(=O)(=O)N1CCN(Cc2ccccc2)CC1', 72),
  ('CC(C)(C)OC(=O)N1CCC(c2c(C(=O)N3CCN(c4ncccn4)CC3)cnn2-c2ccc(F)cc2F)CC1', 6),
  ('CCn1c2ccccc2c2cc(CN3CCN(Cc4ccc(Br)cc4)CC3)ccc21', -1),
  ('CCN(CC)CCN(C(=O)c1ccc(C(=O)OC)cc1)c1nc2ccc(Cl)cc2s1', -4),
  ('CCn1c2ccccc2c2cc(CN3CCN(Cc4cccc(Cl)c4)CC3)ccc21', -1),
  ('COc1cccc(OCc2nc3ccccc3n2C)c1', 57),
  ('COc1cccc(OCc2nc3ccccc3n2CCOc2cccc(C)c2)c1', 44),
  ('COc1cccc(OCCn2c(-c3ccc(Br)cc3)nc3ccccc3c2=O)c1', 82),
  ('CCCn1c(COc2cccc(C)c2)nc2ccccc21', 12),
  ('CC(C)n1c(N2CCN(Cc3ccc(Cl)cc3)CC2)nc2ccccc21', 83);
